# System: M. haemolytica
# Assay Summary: In vitro antibacterial activity, broth microdilution MIC (CLSI M31-A2)
# Type: cell-based, Mannheimia haemolytica
# Run Parameters: Mannheimia haemolytica, M. haemolytica strain 11467-2; read-out: MIC
Experimental Readout: MIC (µg/mL)

CO[C@@H]1C(OC2O[C@@H](C)C(O)C(N(C)C)C2O)[C@@H](CC=O)C[C@@H](C)[C@@H](OC(C)=O)/C=C/[C@@H](N(C)CCCc2ccnc3ccccc23)[C@@H](O)C[C@@H](C)OC(=O)C[C@H]1OC(C)=O (stereo partly shown) [Compound of formula (I)] ... 4
CC[C@H]1OC(=O)C[C@@H](O)[C@H](C)[C@@H](O[C@@H]2O[C@H](C)[C@@H](O)[C@H](N(C)C)[C@H]2O)[C@@H](CCN2C[C@H](C)C[C@H](C)C2)C[C@@H](C)C(=O)/C=C/C(C)=C/[C@@H]1CO[C@@H]1O[C@H](C)[C@@H](O)[C@@H](OC)[C@H]1OC [TMS, tilmicosin] ... 8
CO[C@@H]1[C@@H](O[C@@H]2O[C@H](C)[C@@H](O[C@H]3C[C@@](C)(O)[C@@H](OC(=O)CC(C)C)[C@H](C)O3)[C@H](N(C)C)[C@H]2O)[C@@H](CC=O)C[C@@H](C)[C@@H](O)/C=C/C=C/C[C@@H](C)OC(=O)C[C@H]1OC(C)=O [JM, josamycin] ... 32
CC[C@H]1OC(=O)C[C@@H](O)[C@H](C)[C@@H](O[C@@H]2O[C@H](C)[C@@H](O[C@H]3C[C@@](C)(O)[C@@H](O)[C@H](C)O3)[C@H](N(C)C)[C@H]2O)[C@@H](CC=O)C[C@@H](C)C(=O)/C=C/C(C)=C/[C@@H]1CO[C@@H]1O[C@H](C)[C@@H](O)[C@@H](OC)[C@H]1OC [TS, tylosin] ... 128
